Source: patent US12410124B2

- System: midbrain p-α-s
- Assay procedure: Midbrain p-α-s protein expression in MPTP Parkinson's disease model mouse (western-blotting)
- Format: in vivo
- Conditions: midbrain total protein, GAPDH internal reference, gavage 21 consecutive days after MPTP modeling
Reported Expression (p-α-s/GAPDH) values follow for various compounds
Just the number.

CCN(CC)C(=O)Oc1ccc(/C=C/S(=O)(=O)Cc2ccc(Cl)cc2)cc1OC(=O)N(CC)CC [Compound D1-1]: 0.42
COc1cc(/C=C/S(=O)(=O)Cc2cc(OC)c(OC)c(OC)c2)ccc1OC(=O)N(c1ccccc1)c1ccccc1: 0.62

Record summary for O=S(=O)(/C=C/c1ccc(O)c(O)c1)Cc1ccc(C(F)(F)F)cc1 [Compound 3B, reference compound] : reported Expression (p-α-s/GAPDH) = 0.93

Record summary for C=CCOc1ccc(C/C=C/S(=O)(=O)/C=C/c2ccc(OC(C)=O)c(OC(=O)N(CC=C)CC=C)c2)cc1 : reported Expression (p-α-s/GAPDH) = 0.45

###

- Tested on: midbrain p-α-s
- Assay procedure: Midbrain p-α-s protein expression in MPTP Parkinson's disease model mouse (western-blotting)
- Assay type: in vivo
- Conditions: midbrain total protein, GAPDH internal reference, gavage 21 consecutive days after MPTP modeling
Parameter: Expression (p-α-s/GAPDH)
Just the number.

CCN(CC)C(=O)Oc1ccc(/C=C/S(=O)(=O)CCCc2ccccc2)cc1OC(=O)N(CC)CC: 0.63

Record summary for CN(C)c1ccc(CC(=O)Oc2cc(/C=C/S(=O)(=O)C(Br)c3ccc(Cc4ccc(N(C)C)cc4)cc3)ccc2OC(=O)N2CCCC2C(F)(F)F)cc1 (stereo not drawn) : reported Expression (p-α-s/GAPDH) = 0.24

Record summary for CCN(C)C(=O)Oc1ccc(/C=C/S(=O)(=O)CC(c2ccc(-c3ccc(OC)c(OC)c3)cc2)[N+](=O)[O-])cc1OC(=O)N(C)CC (stereo not drawn) : reported Expression (p-α-s/GAPDH) = 0.27

Record summary for O=C(NC(=O)C(F)(F)F)Oc1ccc(/C=C/S(=O)(=O)C(F)(F)c2ccc(Oc3ccccn3)cc2)cc1OC(=O)C(F)(F)C(F)(F)F : reported Expression (p-α-s/GAPDH) = 0.38

Record summary for COc1ccc(CC(=O)Oc2ccc(/C(C)=C/S(=O)(=O)/C=C/c3ccc(OC(=O)N(C)C)c(O[Si](C)(C)CCl)c3)cc2)cc1 [Compound P1-7] : reported Expression (p-α-s/GAPDH) = 0.27

Record summary for CCN(CC)C(=O)Oc1ccc(/C=C/S(=O)(=O)Cc2ccc(C(F)(F)F)cc2)cc1OC(=O)N(CC)CC : reported Expression (p-α-s/GAPDH) = 0.23

Record summary for CC(C)N(c1ccc(CCS(=O)(=O)/C=C/c2ccc(OC(=O)N(C)c3ccc(I)cc3)c(OCCOCc3ccccc3)c2)cc1)C(C)C : reported Expression (p-α-s/GAPDH) = 0.56

Record summary for COc1ccc(CC(=O)Oc2ccc(C(N)CS(=O)(=O)/C=C/c3ccc(OC(C)(C)C)c(OC(=O)N(C)c4ccccc4)c3)cc2)cc1 (stereo not drawn) [Compound P1-3] : reported Expression (p-α-s/GAPDH) = 0.31

Record summary for COCCN(C)C(=O)Oc1cc(/C=C/S(=O)(=O)CCc2cccc(-c3ccc(C)o3)c2)ccc1OC(C)=O : reported Expression (p-α-s/GAPDH) = 0.47

Record summary for O=S(=O)(/C=C/c1ccc(O)c(O)c1)CCCc1ccccc1 [Compound 3C, reference compound] : reported Expression (p-α-s/GAPDH) = 0.92

Record summary for CC[Si](CC)(Oc1ccc(C(Cl)S(=O)(=O)/C=C/c2ccc(OC(=O)N3CC(C)OC(C)C3)c(OC(=O)c3cccc(Cl)c3OC)c2)cc1)c1ccccc1 (stereo not drawn) : reported Expression (p-α-s/GAPDH) = 0.46

Record summary for CC(C)(C)c1ccc(CS(=O)(=O)/C=C/c2ccc(O)c(O)c2)cc1 [Compound 3G, reference compound] : reported Expression (p-α-s/GAPDH) = 0.61

Record summary for Cc1ccc(S(=O)(=O)Oc2ccc(CS(=O)(=O)/C=C/c3ccc(OS(=O)(=O)c4ccc(C)cc4)c(OC(=O)N(C)S(=O)(=O)c4ccc(C)cc4)c3)cc2)cc1 : reported Expression (p-α-s/GAPDH) = 0.28

Record summary for CCOC(CS(=O)(=O)/C=C/c1ccc(OC(C)=O)c(OC(=O)Nc2ccc(NC)cc2)c1)C(OCC)c1ccc(OCc2ccccc2)c(O)c1 (stereo not drawn) : reported Expression (p-α-s/GAPDH) = 0.53

Record summary for CNC(=O)Oc1ccc(/C=C/S(=O)(=O)CC(Cl)c2ccc(Cl)c([N+](=O)[O-])c2)cc1O (stereo not drawn) [Compound E2-2] : reported Expression (p-α-s/GAPDH) = 0.45
